# RUN_DESCRIPTION: in vitro stability in 10% human plasma, LC-MS/MS
# Type: in vitro ADME
# STUDY_CONDITIONS: room temperature, 100 ng/ml, 2 h
Some substances, each annotated with its measured remaining at 2 h, 100 ng/ml.
READOUT_KIND: remaining at 2 h, 100 ng/ml (%)

* Ac-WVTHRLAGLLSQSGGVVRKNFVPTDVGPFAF-NH2 [SEQ ID NO: 37] | 2.3
* Ac-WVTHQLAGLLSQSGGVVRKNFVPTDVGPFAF-NH2 [SEQ ID NO: 39] | 36.7

----------
# TESTED_TARGET: CGRP1 receptor (human neuroblastoma cell (SK-N-MC) membrane) (Homo sapiens, UniProt O60894+Q16602)
# Construct: human neuroblastoma cell (SK-N-MC) membrane suspension; purchased PerkinElmer; host or cells: SK-N-MC human neuroblastoma cell membranes (endogenous receptor)
# Sequence (Q16602 23-461): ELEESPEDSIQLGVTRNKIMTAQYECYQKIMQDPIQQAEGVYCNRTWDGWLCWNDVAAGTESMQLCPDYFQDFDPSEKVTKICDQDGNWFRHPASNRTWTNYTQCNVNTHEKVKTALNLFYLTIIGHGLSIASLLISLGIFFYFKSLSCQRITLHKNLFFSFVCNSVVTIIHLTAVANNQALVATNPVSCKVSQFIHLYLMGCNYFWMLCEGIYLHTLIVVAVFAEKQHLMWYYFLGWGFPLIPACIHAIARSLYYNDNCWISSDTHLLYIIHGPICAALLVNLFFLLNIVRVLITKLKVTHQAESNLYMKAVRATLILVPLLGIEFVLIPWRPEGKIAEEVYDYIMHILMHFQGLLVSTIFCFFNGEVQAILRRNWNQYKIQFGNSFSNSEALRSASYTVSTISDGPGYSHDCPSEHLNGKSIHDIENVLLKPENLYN
# Sequence (O60894 27-148): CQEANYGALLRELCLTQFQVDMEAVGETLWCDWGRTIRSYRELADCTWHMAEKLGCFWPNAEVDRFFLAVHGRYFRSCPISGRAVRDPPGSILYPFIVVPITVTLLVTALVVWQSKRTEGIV
# RUN_DESCRIPTION: CGRP1 binding assay (125I-hαCGRP displacement)
# STUDY_CONDITIONS: Table 3B
READOUT_KIND: Ki (nM)

* 685 (Ac-WVTHRLAGLLSRSGGVVK(20 kDa PEG)NNFVPTDVGPFAF-NH2) [compound 685] | 155
* 686 (Ac-WVTHRLAGLLSRSGGVVK(20 kDa PEG)NNFVPTDVGPFAF-NH2) [compound 686] | 1.33
* Ac-WVTHRLAGLLSRSGGVVKNNFVPTDVGPFAF-NH2 [compound 5] | 0.06
* Ac-WVTHRLAGLLSRSGGVVKNNFVPTDVGPFAF-NH2 [compound 684] | 0.08
* Ac-WVTHRLAGLLSRSGGVVRCNFVPTDVGPFAF-NH2 [compound 680] | 0.58
* 687 (Ac-WVTHRLAGLLSRSGGVVK(20 kDa PEG)NNFVPTDVGPFAF-NH2) [compound 687] | 0.49

The origin of these recorded values is patent US8168592B2.
